Items are presented alongside their recorded protein stability index.
B1: C22orf15 (parent)
chain: ITQSWQVSVRVQPRGRAHLLPNPY

variants of: B1; assay: protein stability index of a GFP-peptide fusion (GPS, HEK-293T) (PSI 1-6); higher = more stable; conditions: c terminus: a fixed tail appended;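 note: lentivirally expressed fusions sorted by FACS into six bins by GFP to DsRed ratio, PSI derived from sequencing read proportions per bin multiplied by bin number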

sequence_entry | protein stability index
ITQSWQVSTRVQPRGRAHLLPNPY [V9T] | 1.55
DTQSWQVSVRVQPRGRAHLLPNPY [I1D] | 2.12
ITQSWQVSVRYQPRGRAHLLPNPY [V11Y] | 1.68
ITQSWQVSVRVQPRGRAHALPNPY [L19A] | 2.42
ITQSWQVSVRVQPRGRAMLLPNPY [H18M] | 1.83
ITQSWQVRVRVQPRGRAHLLPNPY [S8R] | 2.73
ITQSWQVTVRVQPRGRAHLLPNPY [S8T] | 3.34
QTQSWQVSVRVQPRGRAHLLPNPY [I1Q] | 1.31
ITQSWQVSVRVQPRGRAHLPPNPY [L20P] | 1.17
ITQSWQYSVRVQPRGRAHLLPNPY [V7Y] | 1.86
ITQSWQVSVRVQPRGRAELLPNPY [H18E] | 1.36
ITQSWQVSVRVSPRGRAHLLPNPY [Q12S] | 2.13
ITQSWQVSVRVQDRGRAHLLPNPY [P13D] | 1.86
ITQSWQVSVRVQPHGRAHLLPNPY [R14H] | 2
TTQSWQVSVRVQPRGRAHLLPNPY [I1T] | 1.9
ITQSWAVSVRVQPRGRAHLLPNPY [Q6A] | 1.09
ITQSWQVSVRVFPRGRAHLLPNPY [Q12F] | 3.49
YTQSWQVSVRVQPRGRAHLLPNPY [I1Y] | 3.3
ITQGWQVSVRVQPRGRAHLLPNPY [S4G] | 2.27
ITQSWQVSVRVQPRGRAHMLPNPY [L19M] | 3.54
ITQSWQVSVRVQPRGRAHLLPNFY [P23F] | 3.34
ITQSWQVSVRVQPRGRAHLRPNPY [L20R] | 1.7
ITQSWQASVRVQPRGRAHLLPNPY [V7A] | 2.77
ITQSWQVSVRVQRRGRAHLLPNPY [P13R] | 1.16
ITQSWQVSVRVQPRGRAHLLPNPK [Y24K] | 2.19
ITQYWQVSVRVQPRGRAHLLPNPY [S4Y] | 2.42
ITQSWQVSVRVQPRGRAHLLPPPY [N22P] | 1.17
ITQSWQVSVRVQPRGRAHELPNPY [L19E] | 3.62
ITQSWQVSVRVQGRGRAHLLPNPY [P13G] | 1.64
ITQSWQVSVRQQPRGRAHLLPNPY [V11Q] | 1.49
PTQSWQVSVRVQPRGRAHLLPNPY [I1P] | 1.64
ITQSWQVSVQVQPRGRAHLLPNPY [R10Q] | 2.09
ITQSWQVSVRVQPRGTAHLLPNPY [R16T] | 2.14
ITQSWQVSVRVQPRGHAHLLPNPY [R16H] | 1.89
RTQSWQVSVRVQPRGRAHLLPNPY [I1R] | 1.68
ITQSWQVSVRVQPRTRAHLLPNPY [G15T] | 1.51
ITQSWQVSVRVQPRGDAHLLPNPY [R16D] | 2.88
ITQSWQVSVRVQPRARAHLLPNPY [G15A] | 4.31
ITQSWQVSVRVQPRGRAALLPNPY [H18A] | 2.9
ITQSWYVSVRVQPRGRAHLLPNPY [Q6Y] | 1.96
ITQSWQVSVMVQPRGRAHLLPNPY [R10M] | 2.9
ITQSWTVSVRVQPRGRAHLLPNPY [Q6T] | 1.77
ITQSWSVSVRVQPRGRAHLLPNPY [Q6S] | 1.9
ITQSWQVSVRVYPRGRAHLLPNPY [Q12Y] | 2.25
ITQSWQVSFRVQPRGRAHLLPNPY [V9F] | 1.74
ILQSWQVSVRVQPRGRAHLLPNPY [T2L] | 2.27
LTQSWQVSVRVQPRGRAHLLPNPY [I1L] | 1.5
ITQSWQVSVRVQPRGRNHLLPNPY [A17N] | 1.7
ITQSVQVSVRVQPRGRAHLLPNPY [W5V] | 3.07
ITQSWQVSVRVHPRGRAHLLPNPY [Q12H] | 2.27
ITQSWQVPVRVQPRGRAHLLPNPY [S8P] | 1.71
ITQSWQVSVRVQHRGRAHLLPNPY [P13H] | 2.27
IEQSWQVSVRVQPRGRAHLLPNPY [T2E] | 1.69
ITQSWQVSVRVQPRGRAHLLPNCY [P23C] | 1.6
ITNSWQVSVRVQPRGRAHLLPNPY [Q3N] | 1.85
ITQSWQVSVRVGPRGRAHLLPNPY [Q12G] | 3.64
ITQSWQVSVRVQPRGRAHLLRNPY [P21R] | 1.79
IQQSWQVSVRVQPRGRAHLLPNPY [T2Q] | 2.53
ITQSWQVSVHVQPRGRAHLLPNPY [R10H] | 1.5
KTQSWQVSVRVQPRGRAHLLPNPY [I1K] | 2.18
IYQSWQVSVRVQPRGRAHLLPNPY [T2Y] | 3.42
ITQSWQWSVRVQPRGRAHLLPNPY [V7W] | 1.5
ITQSWQVSVRVQPRGRAHTLPNPY [L19T] | 2.62
ITQSWQVSVRVQPRKRAHLLPNPY [G15K] | 2.31
ITQSWQVSVRVTPRGRAHLLPNPY [Q12T] | 1
ITQSWQVSSRVQPRGRAHLLPNPY [V9S] | 1.91
ITQSWQVSVRVQPRGRADLLPNPY [H18D] | 2.29
ITTSWQVSVRVQPRGRAHLLPNPY [Q3T] | 1.51
ITQSWQVSVRVQPRGRAHLLPNIY [P23I] | 2.08
ITQSWQVSVRMQPRGRAHLLPNPY [V11M] | 3.05
ITQSWQVSVRVQPRGRAQLLPNPY [H18Q] | 2.99
ITQSWQVSVRVQPRHRAHLLPNPY [G15H] | 2.03
ITQSWQVSVRVQPRGRAHLLPEPY [N22E] | 1.59
ITQSRQVSVRVQPRGRAHLLPNPY [W5R] | 2.21
ITQSWQVSVRVQPRGRRHLLPNPY [A17R] | 1.66
ITQSWQVEVRVQPRGRAHLLPNPY [S8E] | 1.54
ITQSWQTSVRVQPRGRAHLLPNPY [V7T] | 2.04
ITQSWQVSVRGQPRGRAHLLPNPY [V11G] | 2.43
ITQKWQVSVRVQPRGRAHLLPNPY [S4K] | 1.42
ITQSWQVSVRVQPRGRAHLLPNGY [P23G] | 1.32
ITQSWQVSVRVQPIGRAHLLPNPY [R14I] | 1.54
ITQSWQVSVRVQMRGRAHLLPNPY [P13M] | 1.91
ISQSWQVSVRVQPRGRAHLLPNPY [T2S] | 1.77
ITQSWQVSVRVQPRGRACLLPNPY [H18C] | 1.49
ITQSWQVSVRVQPNGRAHLLPNPY [R14N] | 1.98
ITQSWQVSVRVQPRGRAHLLPFPY [N22F] | 1.49
ITQSWQVSVRVQPRGRAHLLPNHY [P23H] | 1.27
ITKSWQVSVRVQPRGRAHLLPNPY [Q3K] | 1.95
ITQSWQVSLRVQPRGRAHLLPNPY [V9L] | 2.7
ITQSWQVSVRVWPRGRAHLLPNPY [Q12W] | 2.49
ITQSWQVSVRVQPRGIAHLLPNPY [R16I] | 2.26
